Experimental System: T1, human IL-13 R130Q variant (R110Q of the mature chain) (human, UniProt P35225 35-146, Biotinylated on amines (NHS-LC-biotin, 4:1) in ELISA, panning and competition assays. The letters are unchanged.)
T1 construct: R130Q counts from Met 1 of the signal peptide, R110Q on the mature chain; Bought from Peprotech; also called IL-13 R110Q; b-R130Q
T1 sequence (P35225 35-146 limits assumed, stated change not applied): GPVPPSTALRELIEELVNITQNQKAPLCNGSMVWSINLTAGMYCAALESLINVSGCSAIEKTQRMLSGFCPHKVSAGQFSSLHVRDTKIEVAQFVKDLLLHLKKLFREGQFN
Assay Details: single-point (10 nM) phage Fab ELISA on biotinylated IL-13 R130Q
% of Lc16Hc7 values by entry
Output spec: scalar in %, unitless text.

1) Phage # 88 Fab (IL-13-142 library) (Fab, V domains shown, Fab on phage pIX) VH: QVTLKESGPVLVKPTETLTLTCTVSGFSLSTYGMGVGWIRQPPGKALEWLAHIWWDDVKRYNPALKSRLTISKDTSKSQVVLTMTNMDPVDTATYYCARMGSDYDVWFDYWGQGTLVTVSS VL: DIQMTQSPSTLSASVGDRVTITCRASKSISKYLAWYQQKPGKAPKLLIYSGSTLQSGVPSRFSGSGSGTEFTLTISSLQPDDFATYYCQQHFWGPYTFGGGTKVEIK ... 193

Consider now this further binder.
What does the data say about its % of Lc16Hc7? Entry: Phage # 54 Fab (IL-13-142 library) (Fab, V domains shown, Fab on phage pIX) VH: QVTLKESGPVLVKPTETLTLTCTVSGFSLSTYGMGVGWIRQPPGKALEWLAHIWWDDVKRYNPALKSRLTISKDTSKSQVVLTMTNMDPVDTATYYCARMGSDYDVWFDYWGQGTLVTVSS VL: DIQMTQSPSTLSASVGDRVTITCRASKSISKYLAWYQQKPGKAPKLLIYSGSTLQSGVPSRFSGSGSGTEFTLTISSLQPDDFATYYCQQHDWGPYTFGGGTKVEIK
361
